Recorded values, source paper PMC7031742.

- assay notes: Permeability of ginsenoside in Caco-2 cells
- Type: in vitro ADME
- measurement parameters: human, Caco-2, ER (efflux ratio), Caco-2, B to A / A to B
quantity measured: efflux ratio at 1 h, 10 μM

Previously resolved entries follow.
# structure smiles string, efflux ratio at 1 h, 10 μM
rows = [
    ("CC(C)=CCC[C@](C)(O[C@@H]1O[C@H](CO[C@@H]2O[C@H](CO)[C@@H](O)[C@H](O)[C@H]2O)[C@@H](O)[C@H](O)[C@H]1O)[C@H]1CC[C@]2(C)[C@@H]1[C@H](O)C[C@@H]1[C@@]3(C)CC[C@H](O[C@@H]4O[C@H](CO)[C@@H](O)[C@H](O)[C@H]4O[C@@H]4O[C@H](CO)[C@@H](O)[C@H](O)[C@H]4O)C(C)(C)[C@@H]3CC[C@]12C", "< 2"),
    ("CC(C)=CCC[C@](C)(O[C@@H]1O[C@H](CO)[C@@H](O)[C@H](O)[C@H]1O)[C@H]1CC[C@]2(C)[C@@H]1[C@H](O)C[C@@H]1[C@@]3(C)CC[C@H](O[C@@H]4O[C@H](CO)[C@@H](O)[C@H](O)[C@H]4O[C@@H]4O[C@H](CO)[C@@H](O)[C@H](O)[C@H]4O)C(C)(C)[C@@H]3CC[C@]12C", "< 2"),
]

--- query ---
The value of efflux ratio at 1 h, 10 μM measured for the molecule CC(C)=CCC[C@](C)(O[C@@H]1O[C@H](CO[C@@H]2O[C@@H](CO)[C@H](O)[C@H]2O)[C@@H](O)[C@H](O)[C@H]1O)[C@H]1CC[C@]2(C)[C@@H]1[C@H](O)C[C@@H]1[C@@]3(C)CC[C@H](O[C@@H]4O[C@H](CO)[C@@H](O)[C@H](O)[C@H]4O[C@@H]4O[C@H](CO)[C@@H](O)[C@H](O)[C@H]4O)C(C)(C)[C@@H]3CC[C@]12C turned out to be < 2

---

- assay notes: Pharmacokinetics of ginsenosides in human plasma after single or repeated
- Type: in vivo
- measurement parameters: male, human, plasma, po, 3 pouches of red ginseng extract
Here, each record is paired with measured Cmax data.
Please respond with the number in ng/mL and leave the unit unwritten.

Previously resolved entries follow.
# structure smiles string, Cmax [ng/mL]
rows = [
    ("CC(C)=CCC[C@](C)(O[C@@H]1O[C@H](CO)[C@@H](O)[C@H](O)[C@H]1O)[C@H]1CC[C@]2(C)[C@@H]1[C@H](O)C[C@@H]1[C@@]3(C)CC[C@H](O[C@@H]4O[C@H](CO)[C@@H](O)[C@H](O)[C@H]4O[C@@H]4O[C@H](CO)[C@@H](O)[C@H](O)[C@H]4O)C(C)(C)[C@@H]3CC[C@]12C", 0.7),
    ("CC(C)=CCC[C@](C)(O[C@@H]1O[C@H](CO[C@@H]2O[C@H](CO)[C@@H](O)[C@H](O)[C@H]2O)[C@@H](O)[C@H](O)[C@H]1O)[C@H]1CC[C@]2(C)[C@@H]1[C@H](O)C[C@@H]1[C@@]3(C)CC[C@H](O[C@@H]4O[C@H](CO)[C@@H](O)[C@H](O)[C@H]4O[C@@H]4O[C@H](CO)[C@@H](O)[C@H](O)[C@H]4O)C(C)(C)[C@@H]3CC[C@]12C", 2.19),
    ("CC(C)=CCC[C@](C)(O[C@@H]1O[C@H](CO[C@@H]2O[C@@H](CO)[C@H](O)[C@H]2O)[C@@H](O)[C@H](O)[C@H]1O)[C@H]1CC[C@]2(C)[C@@H]1[C@H](O)C[C@@H]1[C@@]3(C)CC[C@H](O[C@@H]4O[C@H](CO)[C@@H](O)[C@H](O)[C@H]4O[C@@H]4O[C@H](CO)[C@@H](O)[C@H](O)[C@H]4O)C(C)(C)[C@@H]3CC[C@]12C", 1.5),
]

The value of Cmax measured for the compound CC(C)=CCC[C@](C)(O[C@@H]1O[C@H](CO[C@@H]2OC[C@H](O)[C@H](O)[C@H]2O)[C@@H](O)[C@H](O)[C@H]1O)[C@H]1CC[C@]2(C)[C@@H]1[C@H](O)C[C@@H]1[C@@]3(C)CC[C@H](O[C@@H]4O[C@H](CO)[C@@H](O)[C@H](O)[C@H]4O[C@@H]4O[C@H](CO)[C@@H](O)[C@H](O)[C@H]4O)C(C)(C)[C@@H]3CC[C@]12C turned out to be 1.26

---

- assay notes: Permeability of ginsenoside in Caco-2 cells
- Assay type: in vitro ADME
- measurement parameters: human, Caco-2
quantity measured: Papp B→A at 1 h, 10 μM (×10⁻⁶ cm/s)
Please respond with the number in ×10⁻⁶ cm/s and leave the unit unwritten.

Previously resolved entries follow.
# structure smiles string, Papp B→A at 1 h, 10 μM / ×10⁻⁶ cm/s
records = [
    ("CC(C)=CCC[C@](C)(O[C@@H]1O[C@H](CO[C@@H]2OC[C@H](O)[C@H](O)[C@H]2O)[C@@H](O)[C@H](O)[C@H]1O)[C@H]1CC[C@]2(C)[C@@H]1[C@H](O)C[C@@H]1[C@@]3(C)CC[C@H](O[C@@H]4O[C@H](CO)[C@@H](O)[C@H](O)[C@H]4O[C@@H]4O[C@H](CO)[C@@H](O)[C@H](O)[C@H]4O)C(C)(C)[C@@H]3CC[C@]12C", 0.24),
    ("CC(C)=CCC[C@](C)(O[C@@H]1O[C@H](CO[C@@H]2O[C@H](CO)[C@@H](O)[C@H](O)[C@H]2O)[C@@H](O)[C@H](O)[C@H]1O)[C@H]1CC[C@]2(C)[C@@H]1[C@H](O)C[C@@H]1[C@@]3(C)CC[C@H](O[C@@H]4O[C@H](CO)[C@@H](O)[C@H](O)[C@H]4O[C@@H]4O[C@H](CO)[C@@H](O)[C@H](O)[C@H]4O)C(C)(C)[C@@H]3CC[C@]12C", 0.3),
    ("CC(C)=CCC[C@](C)(O[C@@H]1O[C@H](CO[C@@H]2O[C@@H](CO)[C@H](O)[C@H]2O)[C@@H](O)[C@H](O)[C@H]1O)[C@H]1CC[C@]2(C)[C@@H]1[C@H](O)C[C@@H]1[C@@]3(C)CC[C@H](O[C@@H]4O[C@H](CO)[C@@H](O)[C@H](O)[C@H]4O[C@@H]4O[C@H](CO)[C@@H](O)[C@H](O)[C@H]4O)C(C)(C)[C@@H]3CC[C@]12C", 0.33),
]

--- query ---
The value of Papp B→A at 1 h, 10 μM measured for the compound CC(C)=CCC[C@](C)(O[C@@H]1O[C@H](CO)[C@@H](O)[C@H](O)[C@H]1O)[C@H]1CC[C@]2(C)[C@@H]1[C@H](O)C[C@@H]1[C@@]3(C)CC[C@H](O[C@@H]4O[C@H](CO)[C@@H](O)[C@H](O)[C@H]4O[C@@H]4O[C@H](CO)[C@@H](O)[C@H](O)[C@H]4O)C(C)(C)[C@@H]3CC[C@]12C turned out to be 0.31

---

- assay notes: Permeability of ginsenoside in Caco-2 cells
- Type: in vitro ADME
- measurement parameters: human, Caco-2
quantity measured: Papp A→B at 1 h, 10 μM (×10⁻⁶ cm/s)
Please respond with the number in ×10⁻⁶ cm/s and leave the unit unwritten.

The value of Papp A→B at 1 h, 10 μM measured for the molecule CC(C)=CCC[C@](C)(O[C@@H]1O[C@H](CO[C@@H]2O[C@H](CO)[C@@H](O)[C@H](O)[C@H]2O)[C@@H](O)[C@H](O)[C@H]1O)[C@H]1CC[C@]2(C)[C@@H]1[C@H](O)C[C@@H]1[C@@]3(C)CC[C@H](O[C@@H]4O[C@H](CO)[C@@H](O)[C@H](O)[C@H]4O[C@@H]4O[C@H](CO)[C@@H](O)[C@H](O)[C@H]4O)C(C)(C)[C@@H]3CC[C@]12C turned out to be 0.27

---

- assay notes: Pharmacokinetics of ginsenosides in human plasma after single or repeated
- Format: in vivo
- measurement parameters: male, human, plasma, po, 3 pouches of red ginseng extract
Here, each record is paired with measured AUC data.
Please respond with the number in ng·h/mL and leave the unit unwritten.

# compound, unit tag, AUC
data = [
    ("CC(C)=CCC[C@](C)(O[C@@H]1O[C@H](CO)[C@@H](O)[C@H](O)[C@H]1O)[C@H]1CC[C@]2(C)[C@@H]1[C@H](O)C[C@@H]1[C@@]3(C)CC[C@H](O[C@@H]4O[C@H](CO)[C@@H](O)[C@H](O)[C@H]4O[C@@H]4O[C@H](CO)[C@@H](O)[C@H](O)[C@H]4O)C(C)(C)[C@@H]3CC[C@]12C [Rd]", "ng·h/mL", 22.6),
    ("CC(C)=CCC[C@](C)(O[C@@H]1O[C@H](CO[C@@H]2O[C@@H](CO)[C@H](O)[C@H]2O)[C@@H](O)[C@H](O)[C@H]1O)[C@H]1CC[C@]2(C)[C@@H]1[C@H](O)C[C@@H]1[C@@]3(C)CC[C@H](O[C@@H]4O[C@H](CO)[C@@H](O)[C@H](O)[C@H]4O[C@@H]4O[C@H](CO)[C@@H](O)[C@H](O)[C@H]4O)C(C)(C)[C@@H]3CC[C@]12C [Rc]", "ng·h/mL", 59.4),
    ("CC(C)=CCC[C@](C)(O[C@@H]1O[C@H](CO[C@@H]2OC[C@H](O)[C@H](O)[C@H]2O)[C@@H](O)[C@H](O)[C@H]1O)[C@H]1CC[C@]2(C)[C@@H]1[C@H](O)C[C@@H]1[C@@]3(C)CC[C@H](O[C@@H]4O[C@H](CO)[C@@H](O)[C@H](O)[C@H]4O[C@@H]4O[C@H](CO)[C@@H](O)[C@H](O)[C@H]4O)C(C)(C)[C@@H]3CC[C@]12C [Rb2]", "ng·h/mL", 47.1),
]

The value of AUC measured for the compound CC(C)=CCC[C@](C)(O[C@@H]1O[C@H](CO[C@@H]2O[C@H](CO)[C@@H](O)[C@H](O)[C@H]2O)[C@@H](O)[C@H](O)[C@H]1O)[C@H]1CC[C@]2(C)[C@@H]1[C@H](O)C[C@@H]1[C@@]3(C)CC[C@H](O[C@@H]4O[C@H](CO)[C@@H](O)[C@H](O)[C@H]4O[C@@H]4O[C@H](CO)[C@@H](O)[C@H](O)[C@H]4O)C(C)(C)[C@@H]3CC[C@]12C [Rb1] turned out to be 82.7
